Measured values drawn from the supplement of paper PMC10567573 for this set.

B1: ZNF8 (parent)
chain: KPYTCSVCGKSFSRTTCLFLHLRT

Variants of: B1
assay.explanation: protein stability index of a GFP-peptide fusion (GPS, HEK-293T) (PSI 1-6); higher = more stable;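 also: lentivirally expressed fusions sorted by FACS into six bins by GFP to DsRed ratio, PSI derived from sequencing read proportions per bin multiplied by bin number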
study.conditions: c terminus: a fixed tail appended
observable: protein stability index
One number for each entry.

Record protein stability index for all entries; do not skip any.
1. T4K
2. T4S
3. R23N

Reply:
1: 2.04; 2: 1.48; 3: 1.75

Hey, can you go through the list below and give me protein stability index for every item?
1. H21V
2. L18D
3. P2Y
4. L18E

Reply:
[1.8, 2.2, 2.09, 2.45]

Could I get protein stability index for every one of these entries?
1. T24R
2. C8I
3. S13T
4. S13L
5. T4R
6. L22G
7. S13C
8. T15N

Reply:
1: 2.04; 2: 2.07; 3: 1.86; 4: 1.48; 5: 2.4; 6: 2.03; 7: 2.71; 8: 2.02
